Target: STAT5b (Homo sapiens, UniProt P51692)
Sequence (P51692 1-787): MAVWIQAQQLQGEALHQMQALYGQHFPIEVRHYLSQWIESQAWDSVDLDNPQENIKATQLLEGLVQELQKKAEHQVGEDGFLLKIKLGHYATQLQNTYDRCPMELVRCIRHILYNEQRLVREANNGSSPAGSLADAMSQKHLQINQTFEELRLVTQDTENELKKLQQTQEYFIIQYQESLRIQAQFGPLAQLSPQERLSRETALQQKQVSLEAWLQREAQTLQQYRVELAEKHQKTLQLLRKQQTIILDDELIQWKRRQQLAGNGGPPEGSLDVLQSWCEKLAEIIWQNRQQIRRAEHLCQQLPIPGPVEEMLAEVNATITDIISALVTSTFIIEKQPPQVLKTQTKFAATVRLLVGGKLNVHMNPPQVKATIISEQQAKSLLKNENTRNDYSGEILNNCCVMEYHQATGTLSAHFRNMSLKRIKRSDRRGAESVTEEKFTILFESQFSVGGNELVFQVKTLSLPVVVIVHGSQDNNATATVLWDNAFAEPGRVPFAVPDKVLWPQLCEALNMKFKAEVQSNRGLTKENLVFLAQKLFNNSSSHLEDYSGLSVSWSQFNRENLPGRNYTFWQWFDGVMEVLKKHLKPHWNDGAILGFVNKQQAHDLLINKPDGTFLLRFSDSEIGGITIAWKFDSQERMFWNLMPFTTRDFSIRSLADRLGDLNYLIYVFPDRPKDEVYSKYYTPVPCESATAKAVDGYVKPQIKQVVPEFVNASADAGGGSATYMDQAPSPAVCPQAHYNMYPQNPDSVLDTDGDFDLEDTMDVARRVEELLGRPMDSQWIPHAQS
pKi: −log10 of the molar value.

molecule	pKi
O=P(O)(O)Oc1cc(-c2cc(F)c(F)c(F)c2)cc(-c2cc(F)c(F)c(F)c2)c1 [Compound 22]	4.63
COc1ccc(-c2cc(OP(=O)(O)O)cc(-c3ccc(OC)cc3)c2)cc1 [Compound 12]	4.41
COc1ccc(-c2cc(OP(=O)(O)O)cc(-c3ccc(Cl)cc3)c2)cc1 [Compound 1]	4.61
COc1ccccc1-c1cc(OP(=O)(O)O)cc(-c2ccccc2OC)c1 [Compound 14]	4.10
O=P(O)(O)Oc1cc(-c2ccccc2)cc(-c2ccccc2)c1 [Compound 11]	4.32
O=P(O)(O)Oc1cc(-c2ccc(Cl)cc2)cc(-c2ccc(Cl)cc2)c1 [Compound 10]	4.73
COc1cccc(-c2cc(OP(=O)(O)O)cc(-c3cccc(OC)c3)c2)c1 [Compound 13]	4.37
O=P(O)(O)Oc1cc(-c2ccc3c(c2)OCCO3)cc(-c2ccc3c(c2)OCCO3)c1 [Compound 19]	4.45
O=P(O)(O)Oc1cc(-c2ccc3c(c2)OCO3)cc(-c2ccc3c(c2)OCO3)c1 [Compound 18]	4.55
COc1cc(OC)cc(-c2cc(OP(=O)(O)O)cc(-c3cc(OC)cc(OC)c3)c2)c1 [Compound 17]	4.44

These measurements were taken from paper PMC6973011.
